A collection of compounds and their measured response
Target desc: Beta-2 adrenergic receptor (Homo sapiens)
Test summary: agonist-induced loss of surface beta2AR – cell-based, FAP fluorogen, flow cytometry, validation set, pilot screen (AID 504459);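 note: agonist-driven loss of surface beta2AR via internalization measured by FAP dye flow cytometry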
Run conditions: Am2.2-beta2AR cells, at 10 µM, active compounds read high
Entry rule: numbers only, all in %.

Completed entries (count: 6):
compound=CC(=O)c1c(C)c(C)c2n1CCn1c(C)ccc1-2 unit_of_measure=% measured_result=-22.4
compound=CCOC(=O)c1cccc(P(C)(C)=O)c1 unit_of_measure=% measured_result=-6.13
compound=COc1cc2oc(-c3ccc(O)cc3)cc(=O)c2c(OC)c1O unit_of_measure=% measured_result=-2.51
compound=C[N+](C)(C)CCCC(=O)c1ccc2c(c1)OCO2 unit_of_measure=% measured_result=-0.41
compound=O=C(OCCN1CCOCC1)c1cccs1 unit_of_measure=% measured_result=-11.6
compound=N/C(=N\OC(=O)c1cccc(Br)c1)c1ccncc1 unit_of_measure=% measured_result=-7.41

Next compound, please.
Write down the reported response of Cc1ccc(OCCCCn2ccnc2C)c(C)c1 , test system: Beta-2 adrenergic receptor (Homo sapiens).
-16

---

Test summary: TOR pathway reporter MEP2-GFP, retest of hits – S. cerevisiae, flow cytometry GFP, cherry picks, confirmation (AID 2272);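 note: ratio of well signal to plate DMSO mean so 100% equals DMSO level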
Run conditions: S. cerevisiae MEP2-GFP strain, 3 h, at 10 µM
Activity calls are given as the source filed them.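 How the source made its calls: active means GFP response above 150% of the DMSO control; inconclusive means Fewer than 70 cells counted for a yeast strain; inactive means the rest.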
// classify into TRUE = active, FALSE = inactive

compound="CCS(=O)(=O)N1N=C(c2cccc(NS(C)(=O)=O)c2)CC1c1ccc(C)cc1 (stereo not given)" category=FALSE
compound=COc1ccc(-c2[nH]ncc2CN(CCO)Cc2cccs2)c(F)c1 category=FALSE
compound=CCN(CC)c1ccc2cc(-c3nc(-c4ccc(OC)cc4)cs3)c(=O)oc2c1 category=TRUE
compound=C[C@]12CCC(=O)C=C1CC[C@@H]1[C@@H]2[C@@H](O)C[C@@]2(C)[C@H]1CC[C@]2(O)C(=O)COC(=O)CCC(=O)O category=FALSE

// next entry
Name the outcome recorded for Cc1ccc2[nH]c3c(c2c1)CCNC3=O in the assay.
FALSE

---

Target desc: Integrin beta-1 (Homo sapiens) + Integrin alpha-4 (Homo sapiens) (UniProt P13612+P05556)
Sequence (P05556 whole entry, looked up): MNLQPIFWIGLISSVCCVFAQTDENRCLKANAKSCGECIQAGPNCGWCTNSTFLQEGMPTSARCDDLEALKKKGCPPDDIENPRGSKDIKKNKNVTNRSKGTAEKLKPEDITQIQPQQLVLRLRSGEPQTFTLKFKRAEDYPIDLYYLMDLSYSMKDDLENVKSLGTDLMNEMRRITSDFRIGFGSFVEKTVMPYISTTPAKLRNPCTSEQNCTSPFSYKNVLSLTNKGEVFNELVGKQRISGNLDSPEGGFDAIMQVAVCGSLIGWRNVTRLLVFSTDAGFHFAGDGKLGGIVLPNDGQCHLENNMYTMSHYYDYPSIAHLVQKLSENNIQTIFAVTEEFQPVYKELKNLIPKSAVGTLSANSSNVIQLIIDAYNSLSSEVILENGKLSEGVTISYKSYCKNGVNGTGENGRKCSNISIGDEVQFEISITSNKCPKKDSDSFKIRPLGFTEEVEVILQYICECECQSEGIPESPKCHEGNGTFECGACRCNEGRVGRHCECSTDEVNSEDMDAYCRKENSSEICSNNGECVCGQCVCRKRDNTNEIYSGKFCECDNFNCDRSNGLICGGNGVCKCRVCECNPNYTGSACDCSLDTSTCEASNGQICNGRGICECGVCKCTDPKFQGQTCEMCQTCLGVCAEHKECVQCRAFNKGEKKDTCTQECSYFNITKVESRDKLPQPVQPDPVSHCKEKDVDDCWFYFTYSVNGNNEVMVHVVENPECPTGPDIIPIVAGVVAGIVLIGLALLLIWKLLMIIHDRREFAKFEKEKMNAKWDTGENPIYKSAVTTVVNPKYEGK
Sequence (P13612 whole entry, looked up): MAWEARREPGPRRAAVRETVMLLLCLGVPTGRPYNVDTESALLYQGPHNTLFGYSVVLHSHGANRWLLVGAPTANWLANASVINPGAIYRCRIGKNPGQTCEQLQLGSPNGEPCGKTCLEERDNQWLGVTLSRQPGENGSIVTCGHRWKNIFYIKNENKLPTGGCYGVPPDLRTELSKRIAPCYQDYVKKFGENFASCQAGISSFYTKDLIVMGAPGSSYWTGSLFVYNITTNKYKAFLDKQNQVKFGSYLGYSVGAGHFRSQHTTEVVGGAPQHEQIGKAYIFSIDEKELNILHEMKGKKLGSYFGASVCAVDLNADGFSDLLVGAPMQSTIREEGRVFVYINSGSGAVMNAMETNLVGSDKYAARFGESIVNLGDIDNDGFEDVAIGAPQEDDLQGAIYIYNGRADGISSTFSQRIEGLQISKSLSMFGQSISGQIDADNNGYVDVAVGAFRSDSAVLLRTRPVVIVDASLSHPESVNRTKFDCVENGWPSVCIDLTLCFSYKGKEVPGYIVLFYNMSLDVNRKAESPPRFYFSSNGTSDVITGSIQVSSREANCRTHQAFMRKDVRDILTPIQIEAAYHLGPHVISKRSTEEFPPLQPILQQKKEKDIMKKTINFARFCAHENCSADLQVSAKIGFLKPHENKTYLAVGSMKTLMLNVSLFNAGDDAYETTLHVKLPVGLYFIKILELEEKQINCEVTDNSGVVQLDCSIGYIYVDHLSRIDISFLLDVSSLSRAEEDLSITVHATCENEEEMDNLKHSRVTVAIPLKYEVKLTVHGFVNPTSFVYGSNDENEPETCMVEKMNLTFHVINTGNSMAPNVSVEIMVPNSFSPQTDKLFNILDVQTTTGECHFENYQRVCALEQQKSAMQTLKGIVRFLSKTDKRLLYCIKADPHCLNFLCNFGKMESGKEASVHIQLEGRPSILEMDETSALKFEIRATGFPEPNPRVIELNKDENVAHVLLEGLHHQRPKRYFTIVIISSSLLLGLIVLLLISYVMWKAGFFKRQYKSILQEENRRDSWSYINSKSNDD
Test summary: alpha4beta1 integrin LIBS antibody binding reduction – U937 cells, HUTS-21 mAb, flow cytometry, validation set, VLA-4 allosteric modulator project, pilot screen (AID 2674);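 note: antibody binding induced by the VLA-4 ligand LDV present at three times its Kd; 0% = LDV ligand with antibody and no compound and 100% = antibody without LDV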
Run conditions: HUTS-21 LIBS mAb binding, at 6.7 µM, active compounds read high, binding induced by LDV ligand
Measured attribute: inhibition (%)
Give the value, in units of %, as a plain number.

Use the examples below as a reference point.
compound=Cc1cc(C)cc(Nc2nc3c([nH]2)c(=O)n(C)c(=O)n3C)c1 target_desc="Integrin beta-1 (Homo sapiens) + Integrin alpha-4 (Homo sapiens) (UniProt P13612+P05556)" measured_result=6.95
compound=COc1cc(-c2cccs2)cc(=O)c2c(C)oc(C)c12 target_desc="Integrin beta-1 (Homo sapiens) + Integrin alpha-4 (Homo sapiens) (UniProt P13612+P05556)" measured_result=-160
compound="CCc1cc2c(=O)c(-c3ccc4c(c3)OCCO4)coc2c(CN2CCCCC2C)c1O (configuration not stated)" target_desc="Integrin beta-1 (Homo sapiens) + Integrin alpha-4 (Homo sapiens) (UniProt P13612+P05556)" measured_result=14.2
compound="CCN(CC)CC#CCOC(=O)C(O)(c1ccccc1)C1CCCCC1 (configuration not stated)" target_desc="Integrin beta-1 (Homo sapiens) + Integrin alpha-4 (Homo sapiens) (UniProt P13612+P05556)" measured_result=10.3
compound=Cc1cc(=O)oc2c(CN(C)Cc3ccccc3)c(O)ccc12 target_desc="Integrin beta-1 (Homo sapiens) + Integrin alpha-4 (Homo sapiens) (UniProt P13612+P05556)" measured_result=12

Query: inhibition; subject: NC(=O)c1ncn([C@@H]2O[C@H](CO)[C@@H](O)[C@H]2O)c1O
-16.8

Item under review: CCOC(=O)c1ncn2c1CN(C)C(=O)c1cc(F)ccc1-2 . Reported inhibition?
8.29

Given the compound COC(=O)c1ccccc1NC(=O)c1ccc(COc2ccc3c(c2)CCC3)cc1 , what is its reported inhibition?
7.85

I'd like to know its inhibition. The compound in question is COc1cc(CNCCc2ccccc2F)ccc1OCC(=O)N1CCCCC1
-1.79

Fill blank: measured inhibition of the compound O=C(Cc1ccccc1)NCC(=O)OCC(=O)c1ccccc1Cl is ____.
-2.27
